What growth inhibition was measured for each of the following?
# experiment: NCI Yeast Anticancer Drug Screen. Data for the rad50 strain (AID 155);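 note: 0% = growth of vehicle-only cultures of the same strain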
# assay_conditions: S. cerevisiae rad50 strain growth inhibition; at 50.0 µM; active compounds read high
# Description: Growth inhibition of yeast strains with defined genetic alterations is measured as a screen for potential anti-cancer activity. Selected strains with alterations in DNA damage repair or cell cycle control were exposed to compounds and growth inhibition was measured relative to vehicle treated controls. The strain used in this assay is rad50
The panel holds about 79,000 compounds, 15% with a hit somewhere; the sample as a whole holds those more often. Activity calls are given as the source filed them. Cut-off read from the data, not from the text of the source: active = growth inhibition above about 70%; inactive = the rest.

For orientation, consider the following solved cases.
C#CC(CC)(CC)N=Cc1cc(Cl)cc(Cl)c1O: 89.2% (active)
O=C1C(Cl)=C(N2CCN(c3ccccn3)CC2)C(=O)c2ncccc21: 85.3% (active)
CCC(/C=C/c1ccccc1)=N\Nc1ccccc1: 47.7% (inactive)

Items follow; give growth inhibition for each.
1. COC(=O)c1ccc(CCC2=CC(=O)C=CC2=O)cc1
2. COc1ccc2c(N3CCN(C(=O)C(Cl)(Cl)Cl)CC3)cc(C)nc2c1
3. CN(C)CCC(/C=C/c1ccccc1)=N\Nc1ccc(Cl)cc1
4. CC/C(=C\c1cccc(OC)c1)c1ccncc1
5. S=C(NCCc1ccccc1)N/N=C/c1ccc(Cl)cc1
6. C=C1CC2(CCS(=O)(=O)c3ccccc32)OC1=O (configuration not stated)

84.3% (active)
2.05% (inactive)
99.2% (active)
94.7% (active)
85.7% (active)
25.6% (inactive)

----------
# experiment: NCI Yeast Anticancer Drug Screen. Data for the cln2 rad14 strain (AID 165);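 note: 0% = growth equal to vehicle treated cultures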
# assay_conditions: S. cerevisiae cln2 rad14 strain, at 5.0 µM (retest, dose inferred, filed as 0.5), active compounds read high
Compounds without any hit were thinned out: in the full panel of roughly 79,000, 15% have a hit.
property_label: growth inhibition (%)
One number for each entry, in %.

For orientation, consider the following solved cases.
CCOC(=O)c1nc(SC)sc1NC(=O)c1ccccc1Cl: -13
Cc1cc(N/N=C(\c2ccccc2)c2ccccn2)nc2ccccc12: -7
CC(NC(=O)C(NC(=O)C(NC(=O)C(F)(F)F)C(C)C)C(C)C)C(=O)Oc1c(Cl)c(Cl)c(Cl)c(Cl)c1Cl (stereo unspecified): 10
NC(=O)NOCC1NC(=O)NC1=O (stereo unspecified): 8
CCOc1ccc(/C=N\NC(=O)c2ccco2)cc1OCC: -23
CC1(C)CC(=O)C(CSC(=O)c2ccccc2)=C(O)C1: -2
O=C(/C=C/c1ccccc1)c1cc2c(cc1O)OCO2: 2
Nc1ccc2c(c1)NCCN2: 3

Items follow; give growth inhibition for each.
1. CCCC(C(=O)OCCN1CCCC1(C)C)C1CCCC1 (stereo unspecified)
2. Cc1cc(N=[N+]=[N-])c2cc(C3CCCCC3)ccc2n1
3. Cc1cc(Br)c2ccccc2c1N
4. COc1ccc(C2CN(C(=O)c3ccccc3)N=C(c3ccccc3)O2)cc1 (stereo unspecified)

1: 29; 2: 8; 3: -1; 4: -5

----------
# experiment: NCI Yeast Anticancer Drug Screen. Data for the bub3 strain (AID 167)
# assay_conditions: S. cerevisiae bub3 mutant strain, at 50.0 µM
The panel holds about 79,000 compounds, 15% with a hit somewhere; the sample as a whole holds those more often. Active and inactive are the calls of the source. Cut-off read from the data, not from the text of the source: active = growth inhibition above about 70%; inactive = the rest.
Return exactly one item of active, inactive

Below, 5 compounds whose answers are already recorded.
CCOC(=O)/C=C(\CC(=O)OCC)C(=O)OCC: active
Brc1ccc2[nH]c3nc4ccc5ccccc5c4nc3c2c1: inactive
Cc1cc(C2c3ccccc3-c3ccccc32)cc(C)c1O: active
Nc1ccc2c(c1)[nH]c(=O)c1c(Cl)cccc12: inactive
C=CC(=O)c1ccc2c(c1)OCCOCCOCCOCCOCCO2: active

Now let's try a different one.
Could you kindly confirm the outcome this assay logged for N#CSc1ccc(Nc2ccc(SC#N)cc2)cc1 ?
active

Cited source for all entries: PubChem BioAssay (NCI)
